Values from ChEMBL document CHEMBL5053510

assay-system: Tyrosine-protein kinase ITK/TSK (Homo sapiens, UniProt Q08881)
Sequence (Q08881 whole entry): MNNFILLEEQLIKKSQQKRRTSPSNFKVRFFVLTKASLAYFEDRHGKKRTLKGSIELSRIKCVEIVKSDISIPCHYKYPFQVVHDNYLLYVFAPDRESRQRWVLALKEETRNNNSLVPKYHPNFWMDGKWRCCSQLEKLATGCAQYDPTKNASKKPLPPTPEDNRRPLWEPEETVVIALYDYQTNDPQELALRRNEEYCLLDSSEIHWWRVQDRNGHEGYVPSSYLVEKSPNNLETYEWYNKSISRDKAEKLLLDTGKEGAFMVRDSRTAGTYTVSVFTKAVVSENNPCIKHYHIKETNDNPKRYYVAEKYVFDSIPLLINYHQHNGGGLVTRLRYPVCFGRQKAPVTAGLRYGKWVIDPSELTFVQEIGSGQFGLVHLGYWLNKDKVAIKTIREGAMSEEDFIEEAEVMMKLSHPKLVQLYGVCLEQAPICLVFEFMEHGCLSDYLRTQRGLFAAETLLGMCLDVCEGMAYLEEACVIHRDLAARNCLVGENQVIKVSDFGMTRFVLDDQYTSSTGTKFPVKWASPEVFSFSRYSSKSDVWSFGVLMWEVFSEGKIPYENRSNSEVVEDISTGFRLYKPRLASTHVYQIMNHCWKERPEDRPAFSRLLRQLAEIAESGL
measured-property: IC50 (nM)

structure | observed-value
Nc1nc(-c2cccc(-n3ccc4cc(C5CC5)cc(F)c4c3=O)c2CO)c2cc(C3=CCN(C4COC4)CC3)[nH]c2n1 | 60.9

----------
method-notes: Initial plasma concentration in rat at 2 mg/kg, iv
Type: ADME, organism-based
measured-property: C0 (ng/mL)

structure | observed-value
Nc1nc(-c2cccc(-n3ccc4cc(C5CC5)cc(F)c4c3=O)c2CO)c2cc(C3=CCN(C4COC4)CC3)[nH]c2n1 | 874

----------
method-notes: MRT (0 to last) in rat at 15 mg/kg, po
Type: ADME, organism-based
test-context: in vivo
measured-property: MRT last

compound | observed-value
Nc1nc(-c2cccc(-n3ccc4cc(C5CC5)cc(F)c4c3=O)c2CO)c2cc(C3=CCN(C4COC4)CC3)[nH]c2n1 [MILREBRUTINIB] | 4.03 h

----------
method-notes: Half life in dog at 5 mg/kg, po
Type: ADME, organism-based, Canis lupus familiaris
test-context: in vivo

structure | unit-abbreviation | half-life
Nc1nc(-c2cccc(-n3ccc4cc(C5CC5)cc(F)c4c3=O)c2CO)c2cc(C3=CCN(C4COC4)CC3)[nH]c2n1 | h | 1.9

----------
method-notes: Plasma protein binding in human
Assay type: ADME, cell-free
test-context: read-out: PPB (converted)
measured-property: fraction unbound

molecule | measured-property | observed-value
Nc1nc(-c2cccc(-n3ccc4cc(C5CC5)cc(F)c4c3=O)c2CO)c2cc(C3=CCN(C4COC4)CC3)[nH]c2n1 [MILREBRUTINIB] | fraction unbound | 0.02

----------
method-notes: Oral bioavailability in dog at 5 mg/kg
Format: ADME, organism-based, Canis lupus familiaris
test-context: in vivo

compound | unit-abbreviation | bioavailability
Nc1nc(-c2cccc(-n3ccc4cc(C5CC5)cc(F)c4c3=O)c2CO)c2cc(C3=CCN(C4COC4)CC3)[nH]c2n1 [MILREBRUTINIB] | % | 68.1
